compounds and their reported IC50
System: T47D cells
procedure-text: Cell-based assay: anti-proliferative activity, Cell Counting Kit-8, 72 hours (T47D)
recorded-conditions: Homo sapiens, T47D, 72 h
Structures can show the parent of a compound that is named as a salt.
parameter: IC50

[[record]]
compound = "CC(=O)c1cnc2ccc(-c3cnc(C#N)nc3)cc2c1N[C@H]1CC[C@H](CN(C)C)CC1"
parameter = "IC50"
value_observed = "0.23 µM"

[[record]]
compound = "CN1CCN(CCc2cccc(Nc3c(C(=O)C4CC4)cnc4ccc(-c5cc(F)c(O)c(Cl)c5)cc34)c2)CC1"
parameter = "IC50"
value_observed = "5.7 µM"

[[record]]
compound = "CC(=O)c1cnc2ccc(-c3cc(F)c(O)c(Cl)c3)cc2c1Nc1ccc(N2CCC(N)C2)nc1 (stereo not shown)"
parameter = "IC50"
value_observed = "0.0042 µM"

[[record]]
compound = "CC(=O)c1cnc2ccc(-c3cc(F)c(O)c(Cl)c3)cc2c1NC1CCN(CCN(C)C)CC1"
parameter = "IC50"
value_observed = "0.23 µM"

[[record]]
compound = "CN(C)CCc1ccc(Nc2c(C(=O)C3CC3)cnc3ccc(-c4cc(Cl)c(O)c(Cl)c4)cc23)cc1"
parameter = "IC50"
value_observed = "0.13 µM"

[[record]]
compound = "O=C(c1cnc2ccc(-c3cc(F)c(O)c(F)c3)cc2c1Nc1ccc(CN2CCCC2)nc1)C1CC1"
parameter = "IC50"
value_observed = "0.51 µM"

[[record]]
compound = "CC(=O)c1cnc2ccc(-c3cc(Cl)c(O)c(Cl)c3)cc2c1N[C@H]1CC[C@H](CN2CCNCC2)CC1 [Example 772, dihydrochloride]"
parameter = "IC50"
value_observed = "0.058 µM"

[[record]]
compound = "NC[C@H]1CC[C@@H](Nc2c(C(=O)C3CC3)cnc3ccc(-c4cc(F)c(O)c(Cl)c4)cc23)CC1"
parameter = "IC50"
value_observed = "0.23 µM"

[[record]]
compound = "CC(=O)c1cnc2cc(C)c(-c3cc(Cl)c(O)c(Cl)c3)cc2c1Nc1ccc(N2CCN(C)CC2)nc1 [Example 866, hydrochloride]"
parameter = "IC50"
value_observed = "2.4 µM"

[[record]]
compound = "COc1cc(-c2ccc3ncc(S(C)(=O)=O)c(N[C@H]4CC[C@H](CN(C)C)CC4)c3c2)cc(Cl)c1O"
parameter = "IC50"
value_observed = "0.7 µM"

[[record]]
compound = "CN(C)CC(O)c1ccc(Nc2c(C(=O)C3CC3)cnc3ccc(-c4cc(Cl)c(O)c(Cl)c4)cc23)cc1 (stereo not shown)"
parameter = "IC50"
value_observed = "0.2 µM"

[[record]]
compound = "CCC(=O)c1cnc2ccc(-c3cc(Cl)c(O)c(Cl)c3)cc2c1N[C@H]1CC[C@H](CN(C)C)CC1"
parameter = "IC50"
value_observed = "0.087 µM"

[[record]]
compound = "CC(=O)c1cnc2ccc(-c3cc(Cl)c(O)c(Cl)c3)cc2c1Nc1ccc(N2CCNCC2)nc1"
parameter = "IC50"
value_observed = "0.046 µM"

[[record]]
compound = "O=C(c1cnc2ccc(-c3cc(F)c(O)c(Cl)c3)cc2c1Nc1ccc(CN2CCCC2)nc1)C1CC1"
parameter = "IC50"
value_observed = "0.39 µM"

[[record]]
compound = "CN(C)Cc1ccc(Nc2c(C(=O)C3CCCC3)cnc3ccc(-c4ccc(O)c(Cl)c4)cc23)cc1"
parameter = "IC50"
value_observed = "1.6 µM"

[[record]]
compound = "CCC(=O)c1cnc2ccc(-c3cc(Cl)c(O)c(OC)c3)cc2c1Nc1ccc(N2CCC(N)C2)nc1 (stereo not shown)"
parameter = "IC50"
value_observed = "0.049 µM"

[[record]]
compound = "CCC(=O)c1cnc2ccc(-c3cc(Cl)c(O)c(Cl)c3)cc2c1N[C@H]1CC[C@H](N(C)C)CC1"
parameter = "IC50"
value_observed = "0.19 µM"

[[record]]
compound = "CCOc1cc(-c2ccc3ncc(C(C)=O)c(N[C@H]4CC[C@H](N)CC4)c3c2)cc(Cl)c1O"
parameter = "IC50"
value_observed = "0.15 µM"

[[record]]
compound = "CN(C)CCNc1ccc(Nc2c(C(=O)C3CC3)cnc3ccc(-c4cc(F)c(O)c(Cl)c4)cc23)cn1"
parameter = "IC50"
value_observed = "0.073 µM"

[[record]]
compound = "CN(C)C[C@H]1CC[C@@H](Nc2c(C(=O)C3CC3)cnc3ccc(-c4cc(F)c(O)c(Cl)c4)cc23)CC1"
parameter = "IC50"
value_observed = "0.44 µM"

[[record]]
compound = "CN1CCN(C(=O)CNc2c(C(=O)C3CC3)cnc3ccc(-c4cc(F)c(O)c(Cl)c4)cc23)CC1"
parameter = "IC50"
value_observed = "2 µM"

[[record]]
compound = "COc1cc(-c2ccc3ncc(C(C)=O)c(Nc4cccc(CCN(C)C)c4)c3c2)cc(Cl)c1O"
parameter = "IC50"
value_observed = "2.1 µM"

[[record]]
compound = "CC(=O)c1cnc2ccc(-c3cc(Cl)c(O)c(Cl)c3)cc2c1N[C@H]1CC[C@H](NC(=O)[C@@H](N)C(C)(C)C)CC1 [Example 922, hydrochloride]"
parameter = "IC50"
value_observed = "0.2 µM"

[[record]]
compound = "CN(C)CCc1cccc(Nc2c(C(=O)C3CC3)cnc3ccc(-c4cc(F)c(O)c(F)c4)cc23)c1"
parameter = "IC50"
value_observed = "0.43 µM"

[[record]]
compound = "CN(C)CC(O)c1ccc(Nc2c(C(=O)C3CC3)cnc3ccc(-c4cc(F)c(O)c(Cl)c4)cc23)cc1 (stereo not shown)"
parameter = "IC50"
value_observed = "0.21 µM"

[[record]]
compound = "O=C(c1cnc2ccc(-c3cc(F)c(O)c(Cl)c3)cc2c1Nc1cccc(CCN2CCCC2)c1)C1CC1"
parameter = "IC50"
value_observed = "0.52 µM"

[[record]]
compound = "CC(=O)c1cnc2ccc(-c3ccc4cc(O)ccc4c3)cc2c1N[C@H]1CC[C@H](CN(C)C)CC1 [Example 929, hydrochloride]"
parameter = "IC50"
value_observed = "3.3 µM"

[[record]]
compound = "CC(=O)c1cnc2ccc(-c3cc(F)c(O)c(Cl)c3)cc2c1N[C@H]1CC[C@H](NC(=O)[C@@H]2CCCN2)CC1"
parameter = "IC50"
value_observed = "0.048 µM"

